measured-on: T1, TROP2 (UniProt P09758 27-323, limits assumed)
T1 sequence (looked up): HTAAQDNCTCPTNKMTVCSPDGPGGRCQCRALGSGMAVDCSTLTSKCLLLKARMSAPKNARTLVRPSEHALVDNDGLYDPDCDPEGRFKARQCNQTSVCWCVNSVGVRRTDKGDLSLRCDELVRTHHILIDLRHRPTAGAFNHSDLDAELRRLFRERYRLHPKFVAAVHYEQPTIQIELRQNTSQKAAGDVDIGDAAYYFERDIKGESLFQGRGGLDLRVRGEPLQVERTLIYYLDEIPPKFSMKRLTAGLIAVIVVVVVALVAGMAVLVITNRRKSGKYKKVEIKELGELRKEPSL
protocol-text: cell-based or functional assay
For each of the binders below, state its Relative activity (%), inhibition of BxPC-3 cell proliferation.

For every listed record, write down its Relative activity (%), inhibition of BxPC-3 cell proliferation.
1. DXD (deruxtecan)-conjugated sacituzumab (hRS7-DXD) (antibody, human IgG1, kappa, V domains shown, deruxtecan (DXD) on cysteines of reduced interchain disulfides; label D4) VH: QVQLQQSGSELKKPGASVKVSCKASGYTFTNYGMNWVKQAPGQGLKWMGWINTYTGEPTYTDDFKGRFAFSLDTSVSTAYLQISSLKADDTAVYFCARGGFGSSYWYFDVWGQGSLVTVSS VL: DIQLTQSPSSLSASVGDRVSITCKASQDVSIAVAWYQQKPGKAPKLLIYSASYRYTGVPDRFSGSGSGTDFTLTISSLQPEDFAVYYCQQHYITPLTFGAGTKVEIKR
2. hRS7-C9-D4 (antibody, human IgG1, kappa, V domains shown, linker-drug comp9 on cysteines of reduced interchain disulfides; DAR 3.54) VH: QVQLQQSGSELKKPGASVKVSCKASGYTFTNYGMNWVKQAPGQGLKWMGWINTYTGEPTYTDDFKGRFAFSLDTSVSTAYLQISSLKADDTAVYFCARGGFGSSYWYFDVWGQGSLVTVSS VL: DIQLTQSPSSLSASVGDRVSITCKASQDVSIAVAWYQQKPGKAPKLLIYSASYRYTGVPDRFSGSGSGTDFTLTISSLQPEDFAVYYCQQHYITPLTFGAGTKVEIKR
3. hRS7-C6-D4 (antibody, human IgG1, kappa, V domains shown, linker-drug comp6 on cysteines of reduced interchain disulfides; DAR 3.49) VH: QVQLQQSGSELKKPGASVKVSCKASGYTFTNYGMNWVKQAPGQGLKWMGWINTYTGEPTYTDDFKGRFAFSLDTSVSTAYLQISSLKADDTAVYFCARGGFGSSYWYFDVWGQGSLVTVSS VL: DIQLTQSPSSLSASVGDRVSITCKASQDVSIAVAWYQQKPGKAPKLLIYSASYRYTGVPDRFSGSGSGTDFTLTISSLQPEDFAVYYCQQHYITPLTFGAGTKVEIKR
4. hRS7-C8-D4 (antibody, human IgG1, kappa, V domains shown, linker-drug comp8 on cysteines of reduced interchain disulfides; DAR 3.52) VH: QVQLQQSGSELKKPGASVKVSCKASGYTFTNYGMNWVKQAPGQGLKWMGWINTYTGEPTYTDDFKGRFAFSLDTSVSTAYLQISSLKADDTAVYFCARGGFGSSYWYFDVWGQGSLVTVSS VL: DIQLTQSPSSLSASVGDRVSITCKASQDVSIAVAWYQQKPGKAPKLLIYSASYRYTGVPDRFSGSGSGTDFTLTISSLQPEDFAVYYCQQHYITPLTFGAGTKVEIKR
5. hRS7-C7-D4 (antibody, human IgG1, kappa, V domains shown, linker-drug comp7 on cysteines of reduced interchain disulfides; DAR 3.56) VH: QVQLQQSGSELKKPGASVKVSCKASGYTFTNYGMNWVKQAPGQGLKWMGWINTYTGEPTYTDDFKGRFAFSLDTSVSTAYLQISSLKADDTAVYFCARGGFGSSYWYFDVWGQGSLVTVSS VL: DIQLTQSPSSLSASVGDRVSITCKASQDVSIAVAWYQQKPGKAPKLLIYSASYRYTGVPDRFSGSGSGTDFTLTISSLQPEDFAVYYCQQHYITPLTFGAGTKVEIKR

1: 100%; 2: 108%; 3: 80%; 4: 97%; 5: 103%
